studySystem: Mer (Homo sapiens)
Sequence (Q12866 21-999): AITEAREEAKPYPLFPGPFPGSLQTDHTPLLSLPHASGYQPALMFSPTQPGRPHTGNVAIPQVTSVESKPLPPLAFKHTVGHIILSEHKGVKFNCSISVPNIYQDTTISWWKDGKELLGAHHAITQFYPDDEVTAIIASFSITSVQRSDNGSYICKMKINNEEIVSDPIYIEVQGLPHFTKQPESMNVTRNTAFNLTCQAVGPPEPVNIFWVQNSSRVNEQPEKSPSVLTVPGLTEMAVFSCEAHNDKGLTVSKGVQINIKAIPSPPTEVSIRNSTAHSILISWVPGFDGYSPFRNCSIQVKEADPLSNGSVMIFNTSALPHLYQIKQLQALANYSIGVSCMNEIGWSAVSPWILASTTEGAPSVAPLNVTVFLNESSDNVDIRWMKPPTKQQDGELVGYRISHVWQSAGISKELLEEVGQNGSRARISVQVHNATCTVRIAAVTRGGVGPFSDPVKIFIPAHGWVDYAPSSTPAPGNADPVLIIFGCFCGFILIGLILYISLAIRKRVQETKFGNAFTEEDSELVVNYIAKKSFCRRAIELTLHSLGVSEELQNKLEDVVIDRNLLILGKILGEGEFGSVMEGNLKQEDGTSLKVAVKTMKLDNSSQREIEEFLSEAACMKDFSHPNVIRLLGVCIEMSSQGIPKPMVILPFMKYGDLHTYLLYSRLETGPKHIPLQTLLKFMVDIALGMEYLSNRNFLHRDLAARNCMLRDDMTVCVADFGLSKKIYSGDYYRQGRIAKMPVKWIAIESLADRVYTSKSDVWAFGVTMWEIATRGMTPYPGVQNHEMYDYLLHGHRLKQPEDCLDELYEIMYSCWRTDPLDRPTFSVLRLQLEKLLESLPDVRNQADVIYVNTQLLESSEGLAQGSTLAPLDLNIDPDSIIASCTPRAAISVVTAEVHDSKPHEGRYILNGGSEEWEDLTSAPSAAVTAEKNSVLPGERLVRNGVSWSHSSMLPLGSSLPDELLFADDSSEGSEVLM
observable: pIC50
// pIC50 is dimensionless: -log10 of concentration (M)

## Input # query: pIC50 | item CCCCN(C)c1ncc2c(-c3ccc(F)cc3)nn(C[C@H]3CC[C@H](N)CC3)c2n1 [UNC1653] | system: Mer (Homo sapiens)
## Output 6.25

###

studySystem: TrkA (Homo sapiens, UniProt P04629)
Sequence (P04629 33-796): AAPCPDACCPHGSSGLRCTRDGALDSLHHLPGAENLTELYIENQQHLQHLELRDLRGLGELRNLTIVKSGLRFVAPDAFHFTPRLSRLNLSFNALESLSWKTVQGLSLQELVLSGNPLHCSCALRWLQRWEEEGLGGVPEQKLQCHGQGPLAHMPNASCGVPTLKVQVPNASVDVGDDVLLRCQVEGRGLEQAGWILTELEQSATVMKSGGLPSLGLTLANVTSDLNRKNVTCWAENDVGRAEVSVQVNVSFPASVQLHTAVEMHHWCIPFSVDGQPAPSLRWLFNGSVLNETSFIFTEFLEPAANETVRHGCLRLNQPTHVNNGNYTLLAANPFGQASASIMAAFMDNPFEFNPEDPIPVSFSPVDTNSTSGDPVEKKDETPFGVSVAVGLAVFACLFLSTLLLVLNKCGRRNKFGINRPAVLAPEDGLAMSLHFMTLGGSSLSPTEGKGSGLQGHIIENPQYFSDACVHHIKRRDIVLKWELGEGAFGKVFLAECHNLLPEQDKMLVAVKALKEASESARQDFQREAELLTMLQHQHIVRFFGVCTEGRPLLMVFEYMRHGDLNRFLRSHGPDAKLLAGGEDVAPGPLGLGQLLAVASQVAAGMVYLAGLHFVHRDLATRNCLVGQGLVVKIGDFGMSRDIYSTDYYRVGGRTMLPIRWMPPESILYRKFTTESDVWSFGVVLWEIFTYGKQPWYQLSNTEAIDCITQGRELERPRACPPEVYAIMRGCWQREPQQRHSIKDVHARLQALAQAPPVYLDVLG
observable: pIC50
// pIC50 is dimensionless: -log10 of concentration (M)

## Input # query: pIC50 | item CCCCNc1ncc2c(-c3ccc(S(=O)(=O)N4CCOCC4)cc3)cn([C@H]3CC[C@H](O)CC3)c2n1 [UNC1666] | system: TrkA (Homo sapiens, UniProt P04629)
## Output 9.24

###

studySystem: UniProtKB P36888
Sequence (P36888 27-993): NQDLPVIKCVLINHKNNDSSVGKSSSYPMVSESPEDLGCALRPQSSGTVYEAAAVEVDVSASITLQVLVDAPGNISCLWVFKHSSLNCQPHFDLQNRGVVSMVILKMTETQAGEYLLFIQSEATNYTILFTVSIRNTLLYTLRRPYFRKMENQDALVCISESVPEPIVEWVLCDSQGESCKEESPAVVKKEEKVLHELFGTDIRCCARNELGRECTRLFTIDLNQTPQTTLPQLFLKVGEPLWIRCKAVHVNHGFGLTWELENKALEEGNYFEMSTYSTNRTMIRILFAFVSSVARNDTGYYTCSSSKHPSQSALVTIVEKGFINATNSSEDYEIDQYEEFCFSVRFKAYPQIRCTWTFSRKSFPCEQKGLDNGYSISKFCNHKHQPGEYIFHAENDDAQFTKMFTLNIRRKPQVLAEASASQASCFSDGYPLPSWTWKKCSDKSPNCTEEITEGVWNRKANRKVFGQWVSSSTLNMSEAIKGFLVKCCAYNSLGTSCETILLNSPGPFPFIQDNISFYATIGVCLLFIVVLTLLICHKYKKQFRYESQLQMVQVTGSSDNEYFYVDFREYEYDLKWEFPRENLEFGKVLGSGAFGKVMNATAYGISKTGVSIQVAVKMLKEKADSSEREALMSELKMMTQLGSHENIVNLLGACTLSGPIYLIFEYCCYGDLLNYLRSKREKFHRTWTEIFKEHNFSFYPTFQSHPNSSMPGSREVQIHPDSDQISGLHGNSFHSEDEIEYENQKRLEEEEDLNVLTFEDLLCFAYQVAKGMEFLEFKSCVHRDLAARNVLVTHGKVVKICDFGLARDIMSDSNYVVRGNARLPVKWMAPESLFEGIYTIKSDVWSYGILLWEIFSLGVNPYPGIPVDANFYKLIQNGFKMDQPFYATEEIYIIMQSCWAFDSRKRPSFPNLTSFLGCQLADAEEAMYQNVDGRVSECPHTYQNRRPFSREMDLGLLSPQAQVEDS
testDetails: Microfluidic capillary electrophoresis (MCE) enzymatic assay, Flt3
Assay type: biochemical
details: ATP at Km
observable: pIC50
// pIC50 is dimensionless: -log10 of concentration (M)

## Input For the compound shown here, "CCCCN(C)c1ncc2c(-c3ccc(F)cc3)nn(C[C@H]3CC[C@H](N)CC3)c2n1" , give the reported pIC50.
## Output 6.66

###

testDetails: Pharmacokinetics in a murine model
details: mouse, in vivo, po
observable: bioavailability
Dear colleague, please send the value followed by its unit.

## Input For the compound shown here, "CCCCNc1ncc2c(-c3ccc(S(=O)(=O)N4CCOCC4)cc3)cn([C@H]3CC[C@H](O)CC3)c2n1" , give the reported bioavailability.
## Output 8%
